Hello, the source for this data is patent US12090225B2, in case you need it.

- Assay remarks: Solvent solubility screen
- Assay type: physicochemical
- Measurement setup: 2-propanol, 40 °C, organic solvent or mixture, thermodynamic from solid; read-out: Approximate Solubility
Quantity measured: solubility

Q: Specify solubility for COC(=O)c1ccc2c(c1)NC(=O)/C2=C(\Nc1ccc(N(C)C(=O)CN2CCN(C)CC2)cc1)c1ccccc1 [Nintedanib] and stop.
Result: < 11 mg/mL

###

Could you please report measured XRPD pattern after 72 hrs 40° C./75% RH for the items listed next?
- Assay remarks: Pattern stability screen of potential salts (40° C./75% RH, XRPD)
- Format: physicochemical
- Measurement setup: Initial pattern 1
Where a name gives a salt, the structure may show the parent alone.
Write the value as a bare number.

Q: Specify XRPD pattern after 72 hrs 40° C./75% RH for "COC(=O)c1ccc2c(c1)NC(=O)/C2=C(\Nc1ccc(N(C)C(=O)CN2CCN(C)CC2)cc1)c1ccccc1.O=S(=O)(O)CCO" and stop.
Result: 2

Q: Specify XRPD pattern after 72 hrs 40° C./75% RH for "O=S(=O)(O)O" and stop.
Result: 1

Q: Specify XRPD pattern after 72 hrs 40° C./75% RH for COC(=O)c1ccc2c(c1)NC(=O)/C2=C(\Nc1ccc(N(C)C(=O)CN2CCN(C)CC2)cc1)c1ccccc1 [Nintedanib HCl] and stop.
Result: 1

###

- Assay remarks: Inhaled pharmacokinetics of fixed combination nintedanib esylate and pirfenidone
- Type: in vivo, C57BL/6 mice
- Measurement setup: female, C57BL/6, mouse, inhaled or intranasal, 10.0 mg/kg each IT, Lung (whole lung homogenate), read-out: Elimination half-life (alpha-phase)
Quantity measured: half-life (min)
Dear colleague, please return just the value in min, with no unit written.

Q: Specify half-life for "Cc1ccc(=O)n(-c2ccccc2)c1" and stop.
Result: 0.7

Q: Specify half-life for COC(=O)c1ccc2c(c1)NC(=O)/C2=C(\Nc1ccc(N(C)C(=O)CN2CCN(C)CC2)cc1)c1ccccc1 [Nintedanib esylate] and stop.
Result: 1.8

###

- Assay remarks: Plasma and lung pharmacokinetics of nintedanib esylate, oral vs intratracheal aerosol
- Type: in vivo, C57BL/6 mice
- Measurement setup: female, C57BL/6, mouse, inhaled or intranasal; 2.5 mg/kg IT; Lung (whole lung homogenate)
Quantity measured: Cmax (ng/g)
Dear colleague, please return just the value in ng/g, with no unit written.

Q: Specify Cmax for COC(=O)c1ccc2c(c1)NC(=O)/C2=C(\Nc1ccc(N(C)C(=O)CN2CCN(C)CC2)cc1)c1ccccc1 [Nintedanib esylate] and stop.
Result: 57500

###

- Assay remarks: Solvent solubility screen
- Assay type: physicochemical
- Measurement setup: N,N′-dimethylacetamide, organic solvent or mixture, thermodynamic from solid; read-out: Approximate Solubility
Quantity measured: solubility (mg/mL)
Dear colleague, please return just the value in mg/mL, with no unit written.

Q: Specify solubility for "COC(=O)c1ccc2c(c1)NC(=O)/C2=C(\Nc1ccc(N(C)C(=O)CN2CCN(C)CC2)cc1)c1ccccc1" and stop.
Result: 26

###

Could you please report measured solubility for the items listed next?
- Assay remarks: pH-solubility of nintedanib HBr Pattern 4 and Pattern X
- Type: physicochemical
- Measurement setup: pH 3.9; distilled water, over 48 hours, UV/vis 390 nm; unit assumed
Dear colleague, please return just the value in µg/mL, with no unit written.

Q: Specify solubility for Br.COC(=O)c1ccc2c(c1)NC(=O)/C2=C(\Nc1ccc(N(C)C(=O)CN2CCN(C)CC2)cc1)c1ccccc1 [Nintedanib HBr Pattern 4, Nintedanib hydrobromide, XRPD Pattern 4] and stop.
Result: 1470

Q: Specify solubility for Br.COC(=O)c1ccc2c(c1)NC(=O)/C2=C(\Nc1ccc(N(C)C(=O)CN2CCN(C)CC2)cc1)c1ccccc1 [Nintedanib HBr Pattern X, Nintedanib hydrobromide, XRPD Pattern X] and stop.
Result: 1720
